Target: Fibroblast growth factor receptor 4 (Homo sapiens) (UniProt P22455);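 also: reported figure is the averaged percent inhibition of FGFR4, from the GSK PKIS kinase screening panel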
Sequence (P22455 22-802 limits assumed): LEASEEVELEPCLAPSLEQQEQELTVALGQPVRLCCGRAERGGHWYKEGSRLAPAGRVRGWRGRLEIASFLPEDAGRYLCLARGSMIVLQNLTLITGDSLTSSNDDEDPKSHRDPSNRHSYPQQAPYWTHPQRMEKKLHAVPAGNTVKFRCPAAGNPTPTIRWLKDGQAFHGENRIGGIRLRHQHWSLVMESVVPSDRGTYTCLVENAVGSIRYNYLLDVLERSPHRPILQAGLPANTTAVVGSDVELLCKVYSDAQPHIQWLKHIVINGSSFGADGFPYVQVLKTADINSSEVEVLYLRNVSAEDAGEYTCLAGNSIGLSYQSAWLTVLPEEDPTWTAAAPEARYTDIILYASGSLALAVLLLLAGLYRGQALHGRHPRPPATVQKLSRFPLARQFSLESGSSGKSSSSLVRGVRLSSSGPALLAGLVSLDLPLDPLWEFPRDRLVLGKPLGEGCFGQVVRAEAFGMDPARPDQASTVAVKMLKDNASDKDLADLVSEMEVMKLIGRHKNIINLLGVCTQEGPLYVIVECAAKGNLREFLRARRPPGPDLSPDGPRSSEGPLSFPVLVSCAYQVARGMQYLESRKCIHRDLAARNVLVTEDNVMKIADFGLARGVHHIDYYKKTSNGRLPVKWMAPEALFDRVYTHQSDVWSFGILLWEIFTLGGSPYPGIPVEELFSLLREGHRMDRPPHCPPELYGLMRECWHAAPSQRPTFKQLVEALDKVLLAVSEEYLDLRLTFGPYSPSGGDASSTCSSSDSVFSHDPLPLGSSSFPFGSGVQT
Settings: at 1 µM
inhibition for assorted molecules
measured.metric: inhibition (%)

{"smiles.entry": "CCn1cc(-c2ccnc3[nH]ccc23)c(-c2cccc(NC(=O)Nc3ccc(OCc4ccccc4)cc3)c2)n1", "measured.metric": "inhibition", "endpoint.unit": "%", "assay.value": 3.27}
{"smiles.entry": "CCN(CC)S(=O)(=O)c1ccc(OC)c(Nc2ncc(-c3ccccc3)o2)c1", "measured.metric": "inhibition", "endpoint.unit": "%", "assay.value": 3.57}
{"smiles.entry": "CCNC(=O)O[C@H]1CN[C@H](C#Cc2cc3ncnc(Nc4ccc(OCc5cccc(F)c5)c(Cl)c4)c3s2)C1", "measured.metric": "inhibition", "endpoint.unit": "%", "assay.value": -0.06}
{"smiles.entry": "CN1CCC(n2cnc(-c3ccc(F)cc3)c2-c2ccnc(Nc3ccccc3)n2)CC1", "measured.metric": "inhibition", "endpoint.unit": "%", "assay.value": 1.8}
{"smiles.entry": "COc1cccc(-c2c[nH]c3c(N/N=C/c4ccncc4)ncnc23)c1", "measured.metric": "inhibition", "endpoint.unit": "%", "assay.value": 2.46}
{"smiles.entry": "COc1ccc2c(-c3ccnc(Nc4cccc(OC(F)(F)F)c4)n3)cnn2n1", "measured.metric": "inhibition", "endpoint.unit": "%", "assay.value": 0.68}
{"smiles.entry": "CCCN(CCS(C)(=O)=O)Cc1ccc(-c2ccc3ncnc(Nc4ccc(OCc5cccc(F)c5)c(Cl)c4)c3c2)o1", "measured.metric": "inhibition", "endpoint.unit": "%", "assay.value": 3.7}
{"smiles.entry": "CS(=O)(=O)CCNCc1coc(-c2ccc3ncnc(Nc4ccc(OCc5ccccc5)cc4)c3c2)c1", "measured.metric": "inhibition", "endpoint.unit": "%", "assay.value": 1.09}
{"smiles.entry": "CC(=O)Nc1cccc(C#Cc2cncnc2Nc2ccc(OCc3cccc(F)c3)c(Cl)c2)c1", "measured.metric": "inhibition", "endpoint.unit": "%", "assay.value": 1.74}
